Test system: NCI-H460 lung
assay overview: NCI-60 one-dose screen, 48 h
assay context: 10 µM unless noted
Procedure: Growth inhibition of the NCI-H460 human Non-Small Cell Lung tumor cell line is measured as a screen for anti-cancer activity. Cells are grown in 96 well plates and exposed to the test compound for 48 hours. Compounds are tested at a single concentration, which is 10^-5 M for most compounds. The reported endpoint is percent growth (GI% or GIPRCNT), where numbers from 0 - 100% represent growth inhibition, and numbers from -100% - 0 represent cell death. […]
The panel holds about 83,000 compounds, 20% with a hit somewhere; the sample as a whole holds those more often. The source made the active and inactive calls. The calls were made as follows: active = growth percent below 10; inactive = the rest.
Possible outcomes: Yes (active), No (inactive)

                           structure_smiles  label_value
0  COc1ccc2c(c1)c(-c1nc(-c3c[nH]c4c(Cl)nccc34)cs1)cn2C           No
1  CCOC(=O)n1cc(-c2nonc2-c2cn(C)c3ccc(OC)cc23)c2cc(F)ccc21           No
2                           NCCOCCOc1ccccc1           No
3             BrC1=C(Br)C(Br)(Br)C(Br)=C1Br           No
4   CCCCCCCCCCCCC[C@H](O)C[C@H](O)[C@H](C)N           No
5  CC/C=C\C/C=C\C[C@H](O)C/C=C1/C(=O)C=C[C@@H]1C/C=C\CCCC(=O)OC          Yes

---

Tested on: MDA-MB-435 melanoma
assay overview: NCI-60 one-dose screen, 48 h
assay context: 10 µM unless noted
Compounds without any hit were thinned out: in the full panel of roughly 83,000, 20% have a hit. The source made the active and inactive calls. The calls were made as follows: active = growth percent below 10; inactive = the rest.
Outcome codes: label 1 = active, label 0 = inactive

In [3]: df
Out[3]:
                                    compound  label_value
 0                      Cc1ccccc1SSc1ccccc1C      label 0
 1    COc1cc(N=Nc2ccc(O)c3ncccc23)c2ncccc2c1      label 0
 2         COc1ccccc1/C=C1\COc2ccc(O)cc2C1=O      label 0
 3  CC1(C)C(N)=Nc2cc(OCCCN3Cc4ccc(OCCc5cn(CC(=O)N6CCC(CCN7CCCC7)CC6)nn5)cc4C3)c(OCC3CC3)cc21      label 0
 4      N#C/C(=C\c1ccccc1Cl)c1cc2ccccc2[nH]1      label 0
 5  CC(C)=CCc1cc(O)c(O)c2oc3cc(O)cc(O)c3c(=O)c12      label 0
 6  COc1ccc(-c2ccccc2)cc1-c1c(Nc2cc(Cl)cc(Cl)c2O)c(=O)c1=O      label 1
 7  COc1ccc(C2=C(CN)C(O)NC(=NCC(=O)c3ccc4ccccc4c3)N2)cc1 (stereo unspecified)      label 0
 8  Cc1cccc(Cc2cnc(NC(=O)CCCOc3ccc(Cl)cc3)s2)c1      label 1
 9  Cc1ccc(-c2nc(C#N)c(S(=O)(=O)N(C)C)o2)cc1      label 0
10                           CC(C)(C)CC(N)=O      label 0
11  COc1ccc(C/C(C)=C(/c2ccc(OCCN3CCCC3)cc2)c2ccc(OC(=O)NCc3ccccc3)cc2)cc1      label 0
12  Cn1c(=O)c2c(nc(Nc3cc(=O)[nH]c(=O)[nH]3)n2Cc2ccccc2)n(C)c1=O      label 1
13  CCN(CC)CC(=O)Nc1ccc2ncnc(Nc3ccc(Oc4cccc(F)c4)c(Cl)c3)c2c1      label 0
14  [2H]C([2H])([2H])Oc1cccc(/C=C/C(=O)/C=C(/C=C/c2cccc(OC([2H])([2H])[2H])c2OC([2H])([2H])[2H])OB(F)F)c1OC([2H])([2H])[2H]      label 0
15  COc1ccc(CN2CCc3c(Cl)nc(N)nc3C2=O)c(OC)c1      label 1
16  O=C(/C=C/c1ccc([N+](=O)[O-])cc1)c1ccccc1      label 0
17  CCOC(=O)c1cc2c(n1Cc1cc(OC)cc(OC)c1Br)-c1nc(NC(C)=O)sc1CCC2      label 0
18  CC(=O)c1nn(-c2ccccc2)/c(=N/N=Cc2cn(-c3ccccc3)nc2-c2cc3ccccc3oc2=O)s1      label 0
19  Cc1[nH]c(C(=O)Nc2nc3ccc(NC(=O)CCN)cc3s2)c(Cl)c1Cl      label 0
20  COc1cc(C=O)ccc1Oc1ccc([N+](=O)[O-])cc1[N+](=O)[O-]      label 0
